ASSAY OVERVIEW: Pharmacokinetics study of KDG-0271 in male CD1 mice (Example 3)
Format: in vivo
REPORTED CONDITIONS: mouse, plasma; male CD1 mice, 200 mg/kg IP
REPORTED PROPERTY: AUC(0-t) (µg·h/mL)
Give the value, in units of µg·h/mL, as a plain number.

input: Any idea what its AUC(0-t) is? The compound is Cc1n[nH]c2c1C(c1cc(C#CC3CN(C(=O)OC(C)(C)C)C3)cc(CO)c1)(C(C)C)C(C#N)=C(N)O2 (stereo not shown) [KDG-0271]
output: 8.15

###

ASSAY OVERVIEW: Pharmacokinetics study of KDG-0271 in male CD1 mice (Example 4)
Type: in vivo
REPORTED CONDITIONS: mouse, plasma, 50 mg/kg PO, 8 h, read-out: Concentration PO_Mean
REPORTED PROPERTY: concentration at 8 h (ng/mL)
Give the value, in units of ng/mL, as a plain number.

input: Any idea what its concentration at 8 h is? The compound is Cc1n[nH]c2c1C(c1cc(C#CC3CN(C(=O)OC(C)(C)C)C3)cc(CO)c1)(C(C)C)C(C#N)=C(N)O2 (stereo not shown)
output: 2.67
